subject-of-test: T1, human CD3E&G complex (Sino Biological Inc., CT041-H0305H) (human, UniProt P07766 23-126; P09693 23-116)
T1 construct: bought heterodimer; also called human CD3E&G antigen
test-name: BLI, antibody on sensor
quantity-kind: kon (M⁻¹ s⁻¹)
Report the figure in M⁻¹ s⁻¹ without appending any unit label.

binder="hzsp34.86 (antibody, human IgG1, lambda, L234A L235A, V domains shown, CDR mutant of hzsp34.24; IgG1 L234A L235A, lambda) VH: EVQLVESGGGLVQPGGSLKLSCAASGFTFNTYAMNWVRQASGKGLEWVGRIRSKYNNYATYYADSVKDRFTISRDDSKSTLYLQMNSLKTEDTAVYYCARAGNFGQSYVSWFAYWGQGTTVTVSS VL: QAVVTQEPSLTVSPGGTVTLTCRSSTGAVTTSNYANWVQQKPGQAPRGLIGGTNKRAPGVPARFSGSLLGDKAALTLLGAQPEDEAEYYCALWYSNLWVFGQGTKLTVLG" quantity_kind=kon recorded_value=219000

input: Reported kon, binder hzsp34.80 (antibody, human IgG1, lambda, L234A L235A, V domains shown, CDR mutant of hzsp34.24; IgG1 L234A L235A, lambda) VH: EVQLVESGGGLVQPGGSLKLSCAASGFTFNTAAMNWVRQASGKGLEWVGRIRSKYNNYATYYADSVKDRFTISRDDSKSTLYLQMNSLKTEDTAVYYCARHGNFGQSYVSWFAYWGQGTTVTVSS VL: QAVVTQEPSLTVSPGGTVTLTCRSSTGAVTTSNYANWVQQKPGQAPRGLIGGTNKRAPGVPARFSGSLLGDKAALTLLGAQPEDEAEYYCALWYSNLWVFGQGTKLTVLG : ____
output: 138000
